assay: refractive index (Na D-line) (dimensionless); details: 298.15 K; 101.33 kPa; Liquid; Standard Abbe refractometry
In this section we review reported refractive index values for a set of compounds.

COMPOUND SMILES: C1CCCC1
refractive index: 1.40292

COMPOUND SMILES: Cc1ccc(C)cc1
refractive index: 1.49312

COMPOUND SMILES: Cc1cccc(C)c1
refractive index: 1.49466

COMPOUND SMILES: Cc1cc(C)cc(C)c1
refractive index: 1.49693

COMPOUND SMILES: C1CCCCCCC1
refractive index: 1.45598

COMPOUND SMILES: CC1CCCCC1
refractive index: 1.42062

COMPOUND SMILES: Cc1ccccc1C
refractive index: 1.50262

COMPOUND SMILES: C1CCCCC1
refractive index: 1.4236

---

assay: refractive index (Na D-line) (dimensionless); settings: 313.15 K; 101.33 kPa; Liquid; Standard Abbe refractometry
EXPERIMENTAL ENDPOINT: refractive index

COMPOUND SMILES: Cc1cc(C)cc(C)c1
REPORTED RESULT: 1.48923

COMPOUND SMILES: Cc1cccc(C)c1
REPORTED RESULT: 1.48653

COMPOUND SMILES: C1CCCCC1
REPORTED RESULT: 1.41516

COMPOUND SMILES: C1CCCCCCC1
REPORTED RESULT: 1.44877

COMPOUND SMILES: Cc1ccc(C)cc1
REPORTED RESULT: 1.48444

COMPOUND SMILES: Cc1ccccc1C
REPORTED RESULT: 1.49466

COMPOUND SMILES: C1CCCC1
REPORTED RESULT: 1.39456

---

We begin with a simple list: items and their reported speed of sound.
details: 298.15 K; 101 kPa; Liquid; Pulse-echo method

COMPOUND SMILES: C1CCCCC1
speed of sound / m/s: 1255

COMPOUND SMILES: CC1CCCCC1
speed of sound / m/s: 1215

COMPOUND SMILES: Cc1ccc(C)cc1
speed of sound / m/s: 1310

COMPOUND SMILES: C1CCCCCCC1
speed of sound / m/s: 1391

COMPOUND SMILES: Cc1cccc(C)c1
speed of sound / m/s: 1321

COMPOUND SMILES: Cc1cc(C)cc(C)c1
speed of sound / m/s: 1336

COMPOUND SMILES: Cc1ccccc1C
speed of sound / m/s: 1350

COMPOUND SMILES: C1CCCC1
speed of sound / m/s: 1204

---

Entries and their mass density values follow.
conditions: 298.15 K; 101 kPa; Liquid

COMPOUND SMILES: Cc1cccc(C)c1
SCALE UNIT: kg/m3
mass density: 859.8
--
COMPOUND SMILES: Cc1cc(C)cc(C)c1
SCALE UNIT: kg/m3
mass density: 861.1
--
COMPOUND SMILES: C1CCCCC1
SCALE UNIT: kg/m3
mass density: 773.9
--
COMPOUND SMILES: Cc1ccc(C)cc1
SCALE UNIT: kg/m3
mass density: 856.6
--
COMPOUND SMILES: C1CCCC1
SCALE UNIT: kg/m3
mass density: 740
--
COMPOUND SMILES: C1CCCCCCC1
SCALE UNIT: kg/m3
mass density: 831.5
--
COMPOUND SMILES: Cc1ccccc1C
SCALE UNIT: kg/m3
mass density: 875.4
